# credit: patent US20260193365A1

# Tested Target: T1, human CCR2 (human, UniProt O18793 1-360 (rhesus entry))
# T1 construct: On primary human monocytes/PBMC and on human-CCR2 transfected CHO cells; also called C-C Motif Chemokine Receptor 2; CD192
# T1 chain: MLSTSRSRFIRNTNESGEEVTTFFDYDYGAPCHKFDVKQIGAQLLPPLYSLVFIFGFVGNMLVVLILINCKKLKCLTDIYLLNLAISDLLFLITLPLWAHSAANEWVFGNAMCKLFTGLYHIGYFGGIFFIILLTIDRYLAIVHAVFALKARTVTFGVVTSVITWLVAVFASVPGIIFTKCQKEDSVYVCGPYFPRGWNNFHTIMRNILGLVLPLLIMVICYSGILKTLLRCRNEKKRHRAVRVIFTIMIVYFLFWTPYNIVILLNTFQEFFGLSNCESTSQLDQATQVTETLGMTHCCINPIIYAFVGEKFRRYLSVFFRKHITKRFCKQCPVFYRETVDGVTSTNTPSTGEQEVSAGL
# Assay Details: cell binding, primary human monocytes
Parameter: binding result

Binder | Measured
DOC2-RHBXRKA (antibody, human IgG1, kappa, V domains shown) VH: EVQLVESGGGVVQPGRSLRLSCAASGFTLSNYAMSWVRQAPGKGLEWVAEVSSSGIYIYYSDTVTGRFSISRDNSKNTLYLQMNSLRAEDTAVYYCARDRYAYAMDYWGQGTLVIVSS VL: DIVMTQSPDSLAVSLGERATINCKSSQSLLNSYNQKNSLAWYQQKPGQPPKLLIYFASTRESGVPDRFSGSGSGTDFTLTISSLQAEDVAVYYCQQHYSNPRTFGGGTKLEIKR | binds
DOC2-RHBXRKB (antibody, human IgG1, kappa, V domains shown, The number agrees with the antibody's name and was used) VH: EVQLVESGGGVVQPGRSLRLSCAASGFTLSNYAMSWVRQAPGKGLEWVAEVSSSGIYIYYSDTVTGRFSISRDNSKNTLYLQMNSLRAEDTAVYYCARDRYAYAMDYWGQGTLVIVSS VL: DIVMTQSPDSLAVSLGERATINCKSSQSLLNSYNQKNSLAWYQQKPGQPPKLLVYFASTRESGVPDRFSGSGSGTDFTLTISSLQAEDVAVYFCQQHYSNPRTFGGGTKLEIKR | binds
DOC3-RH09XRKA (antibody, human IgG1, kappa, V domains shown) VH: EVQLVESGGGLVQPGGSLRLSCAVSGFSLTRYDLSWVRQAPGKGLEWLGVIWTGGGTNYNSAFMSRFSISKDNSKNTVFLQMNSLRAEDTAVYYCARENYYNRRGYFDVWGQGTTVTVSS VL: EIVLTQSPATLSLSPGERATLSCSASSSVSYMHWFQQKPGQAPRLLIYLTSNLASGIPARFSGSGSGTDFTLTISSLEPEDFAVYYCQQRSGSPPTFGPGTKLDIKR | binds
DOC2-RHAXRKB (antibody, human IgG1, kappa, V domains shown) VH: EVQLVESGGGVVQPGRSLRLSCAASGFTLSNYAMSWVRQAPGKGLEWVAEVSSSGIYIYYSDTVTGRFTISRDNSKNTLYLQMNSLRAEDTAVYYCARDRYAYAMDYWGQGTLVTVSS VL: DIVMTQSPDSLAVSLGERATINCKSSQSLLNSYNQKNSLAWYQQKPGQPPKLLVYFASTRESGVPDRFSGSGSGTDFTLTISSLQAEDVAVYFCQQHYSNPRTFGGGTKLEIKR | binds
DOC3-RH09XRKC (antibody, human IgG1, kappa, V domains shown) VH: EVQLVESGGGLVQPGGSLRLSCAVSGFSLTRYDLSWVRQAPGKGLEWLGVIWTGGGTNYNSAFMSRFSISKDNSKNTVFLQMNSLRAEDTAVYYCARENYYNRRGYFDVWGQGTTVTVSS VL: QIVLTQSPATLSLSPGERATLSCSASSSVSYMHWFQQKPGQAPRLLIYLTSNLASGVPARFSGSGSGTDFTLTISSLEPEDFAVYYCQQRSGSPPTFGPGTKLDIKR | binds
DOC2-RHAXRKA (antibody, human IgG1, kappa, V domains shown, also called DOC2-reshaped) VH: EVQLVESGGGVVQPGRSLRLSCAASGFTLSNYAMSWVRQAPGKGLEWVAEVSSSGIYIYYSDTVTGRFTISRDNSKNTLYLQMNSLRAEDTAVYYCARDRYAYAMDYWGQGTLVTVSS VL: DIVMTQSPDSLAVSLGERATINCKSSQSLLNSYNQKNSLAWYQQKPGQPPKLLIYFASTRESGVPDRFSGSGSGTDFTLTISSLQAEDVAVYYCQQHYSNPRTFGGGTKLEIKR | binds
DOC2-RHBXRKC (antibody, human IgG1, kappa, V domains shown) VH: EVQLVESGGGVVQPGRSLRLSCAASGFTLSNYAMSWVRQAPGKGLEWVAEVSSSGIYIYYSDTVTGRFSISRDNSKNTLYLQMNSLRAEDTAVYYCARDRYAYAMDYWGQGTLVIVSS VL: DIVMTQSPDSLAVSLGERATINCKSSQSLLNSYNQKNSLAWYQQKPGQPPKLLVYFASTRESGVPDRFIGSGSGTYFTLTISSLQAEDVAVYFCQQHYSNPRTFGGGTKLEIKR | binds
